Test system: 186277-243-T-J2-PDC complex spheroid growth
measurement_description: Anticancer human tumor 186277-243-T-J2-PDC patient-derived colon adenocarcinoma cell line growth inhibition [AhR]
cond: second compound 1 µM; first compound 10 µM; hits give low values
From the text: Multicellular complex tumor spheroid response to aryl hydrocarbon receptor antagonists in combination with a variety of drugs and investigational agents in selected tumor cell lines […] Compounds. […] If the clinical Cmax for an agent had not been determined, the highest concentration tested was 10 microM (Table 1). […]
Assignment: determine reported viability, T/C for the given compounds.
One number for each entry, in %.

compound	viability, T/C [%]
O=C(C=Cc1cccc(S(=O)(=O)Nc2ccccc2)c1)NO + Cc1ccccc1N=Nc1ccc(NC(=O)c2ccnn2C)c(C)c1	4.07
COc1cc(C2c3cc4c(cc3C(OC3OC5COC(C)OC5C(O)C3O)C3COC(=O)C23)OCO4)cc(OC)c1O (stereo not given) + Cc1ccccc1N=Nc1ccc(NC(=O)c2ccnn2C)c(C)c1	41.7
O=C(c1cc(Cc2n[nH]c(=O)c3ccccc23)ccc1F)N1CCN(C(=O)C2CC2)CC1 + Cc1ccccc1N=Nc1ccc(NC(=O)c2ccnn2C)c(C)c1	127

Each of the following entries comes with a recorded value; kindly state viability, T/C for each.
1. O=C(c1cc(Cc2n[nH]c(=O)c3ccccc23)ccc1F)N1CCN(C(=O)C2CC2)CC1 + CC(CO)NC(=O)c1cc(-c2ccc(Cl)cc2)nn(-c2cnn(C)c2)c1=O
2. COc1ccc([C@@H](O)c2cc(-c3ncnc4cc(N5CCOCC5)ccc34)c(F)cc2Cl)nn1 + CC(CO)NC(=O)c1cc(-c2ccc(Cl)cc2)nn(-c2cnn(C)c2)c1=O
3. CC1COCCN1c1cc(C2(S(C)(=N)=O)CC2)nc(-c2ccnc3[nH]ccc23)n1 (stereo not given) + Cc1cncc(-c2nc(NCCc3c[nH]c4ccccc34)c3ncn(C(C)C)c3n2)c1
4. CC(C)c1c(-c2ccccc2)nc2c(C#N)c[nH]n2c1=O + CC(CO)NC(=O)c1cc(-c2ccc(Cl)cc2)nn(-c2cnn(C)c2)c1=O
5. CC1COCCN1c1cc(C2(S(C)(=N)=O)CC2)nc(-c2ccnc3[nH]ccc23)n1 (stereo not given) + Cc1ccccc1N=Nc1ccc(NC(=O)c2ccnn2C)c(C)c1
6. COc1ccc([C@@H](O)c2cc(-c3ncnc4cc(N5CCOCC5)ccc34)c(F)cc2Cl)nn1 + Cc1cncc(-c2nc(NCCc3c[nH]c4ccccc34)c3ncn(C(C)C)c3n2)c1
7. COc1ccc([C@@H](O)c2cc(-c3ncnc4cc(N5CCOCC5)ccc34)c(F)cc2Cl)nn1 + Cc1ccccc1N=Nc1ccc(NC(=O)c2ccnn2C)c(C)c1

Output:
46.5
19.1
7.29
93.8
9.66
68.7
62.7

====

Test system: 186277-243-T-J2-PDC complex spheroid growth
measurement_description: Anticancer human tumor 186277-243-T-J2-PDC cell line growth inhibition [AhR]; active = viability on the fitted dose curve at most 10% of control; inactive = the rest;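 further: luminescent signal used as a stand-in for viable cell amount; spheroids exposed to compounds for seven days before the viability read; 100% = DMSO vehicle control wells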
cond: second compound 10 µM; first compound 3.16 µM
Form entry, call: pick from active, inactive

compound	class_assignment
Nc1ccn(C2OC(CO)C(O)C2(F)F)c(=O)n1 (stereo unspecified) + CC(CO)NC(=O)c1cc(-c2ccc(Cl)cc2)nn(-c2cnn(C)c2)c1=O	active
O=C(C=Cc1cccc(S(=O)(=O)Nc2ccccc2)c1)NO + Cc1ccccc1N=Nc1ccc(NC(=O)c2ccnn2C)c(C)c1	inactive

Input: # outcome recorded in this test, key = Nc1ccccc1NC(=O)c1ccc(CNC(=O)OCc2cccnc2)cc1 + CC(CO)NC(=O)c1cc(-c2ccc(Cl)cc2)nn(-c2cnn(C)c2)c1=O
Output: active

Input: # outcome recorded in this test, key = CC1COCCN1c1cc(C2(S(C)(=N)=O)CC2)nc(-c2ccnc3[nH]ccc23)n1 (stereo unspecified) + CC(CO)NC(=O)c1cc(-c2ccc(Cl)cc2)nn(-c2cnn(C)c2)c1=O
Output: active

Input: # outcome recorded in this test, key = CC(C)c1c(-c2ccccc2)nc2c(C#N)c[nH]n2c1=O + CC(CO)NC(=O)c1cc(-c2ccc(Cl)cc2)nn(-c2cnn(C)c2)c1=O
Output: inactive

Input: # outcome recorded in this test, key = Nc1ccccc1NC(=O)c1ccc(CNC(=O)OCc2cccnc2)cc1 + Cc1cncc(-c2nc(NCCc3c[nH]c4ccccc34)c3ncn(C(C)C)c3n2)c1
Output: active
